The reported measurements were obtained from patent US20060079503A1.

assay-target: Recombinant human Plk-1 (6×His) (Homo sapiens)
Construct: 6×His
Sequence (P53350 whole entry): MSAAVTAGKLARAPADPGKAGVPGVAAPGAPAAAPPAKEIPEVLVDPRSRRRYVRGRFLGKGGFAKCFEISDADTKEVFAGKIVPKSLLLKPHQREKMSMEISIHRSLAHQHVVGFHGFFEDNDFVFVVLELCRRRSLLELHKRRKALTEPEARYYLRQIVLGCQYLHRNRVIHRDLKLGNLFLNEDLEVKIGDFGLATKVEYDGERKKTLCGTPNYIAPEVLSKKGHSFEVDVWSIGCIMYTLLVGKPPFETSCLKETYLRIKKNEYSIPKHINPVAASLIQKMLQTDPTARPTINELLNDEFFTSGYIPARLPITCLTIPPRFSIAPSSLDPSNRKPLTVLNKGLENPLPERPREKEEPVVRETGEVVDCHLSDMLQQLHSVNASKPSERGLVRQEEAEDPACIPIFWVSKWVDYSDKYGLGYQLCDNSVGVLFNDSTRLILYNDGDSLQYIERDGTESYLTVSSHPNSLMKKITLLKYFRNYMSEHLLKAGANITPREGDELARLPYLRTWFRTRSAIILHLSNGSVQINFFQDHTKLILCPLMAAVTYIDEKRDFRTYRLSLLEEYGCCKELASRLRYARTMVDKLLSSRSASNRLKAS
assay-explanation: PLK enzyme assay (33P-γ-ATP incorporation into biotinylated casein, SPA beads)
condition-set: 10 ng PLK enzyme, 90 minutes at room temperature, 0.5 μmol of ATP, casein substrate; read-out: Inhibition of PLK-1 IC50
experimental-readout: IC50 (nM)

compound: CCOC(=O)C(C#N)=c1sc(=CNc2cccc(C(=O)NC)c2)c(=O)n1CC [Example 52]
assay-target: Recombinant human Plk-1 (6×His) (Homo sapiens)
units-symbol: nM
numeric-value: 260
//
compound: CCOC(=O)C(C#N)=c1sc(=CNc2cc(C(=O)O)ccc2O)c(=O)n1CC [Example 28]
assay-target: Recombinant human Plk-1 (6×His) (Homo sapiens)
units-symbol: nM
numeric-value: 2300
//
compound: CCOC(=O)C(C#N)=c1sc(=CNc2cccc(C(N)=O)c2)c(=O)n1CC [Example 48]
assay-target: Recombinant human Plk-1 (6×His) (Homo sapiens)
units-symbol: nM
numeric-value: 270
//
compound: CCOC(=O)C(C#N)=c1sc(=CNc2cccc(C)c2C(=O)O)c(=O)n1CC [Example 39]
assay-target: Recombinant human Plk-1 (6×His) (Homo sapiens)
units-symbol: nM
numeric-value: 5900
//
compound: CCOC(=O)C(C#N)=c1sc(=CN)c(=O)n1CC (mixture of isomers) [Example 11]
assay-target: Recombinant human Plk-1 (6×His) (Homo sapiens)
units-symbol: nM
numeric-value: 400

A. CCOC(=O)C(C#N)=c1sc(=CNc2cccc(C(=O)O)c2)c(=O)n1CC [Example 24]
B. CCOC(=O)C(C#N)=c1sc(=CNc2ccc(S(C)(=O)=O)cc2)c(=O)n1CC [Example 22]
Task: Lab notebook, comparison: A versus B , higher IC50 goes to which? Lab note: record the label of whichever item you select.
Result: B
(B: 510 nM, A: 230 nM)
